test: Metabolic stability in human liver microsomes assessed as clearance; type: ADME, Microsome; details: read-out: CLH
endpoint.label: microsomal CLint (µL/min/mg)

structure_notation=Cn1cc([C@H](Nc2cc(-c3ccc4ccn(C)c4c3)c3nccnc3c2)c2cnnn2C)cn1 endpoint_label="microsomal CLint" result_units=µL/min/mg quantitative_result=50

====

experiment: Clearance in BALB/c mouse at 5 mg/kg, iv by LC-MS/MS analysis; format: ADME, organism-based; settings: in vivo
endpoint.label: clearance (mL/min/kg)

structure_notation=O=C(/C=C/c1ccc2ccc(C(F)(F)F)cc2n1)c1ccncc1 quantitative_result=26

====

biological target: 6-phosphofructo-2-kinase/fructose-2,6-bisphosphatase 3 (Homo sapiens, UniProt Q16875); experiment: Inhibition of PFKFB3 (unknown origin) by UV-vis spectrophotometry
Sequence (Q16875 whole entry): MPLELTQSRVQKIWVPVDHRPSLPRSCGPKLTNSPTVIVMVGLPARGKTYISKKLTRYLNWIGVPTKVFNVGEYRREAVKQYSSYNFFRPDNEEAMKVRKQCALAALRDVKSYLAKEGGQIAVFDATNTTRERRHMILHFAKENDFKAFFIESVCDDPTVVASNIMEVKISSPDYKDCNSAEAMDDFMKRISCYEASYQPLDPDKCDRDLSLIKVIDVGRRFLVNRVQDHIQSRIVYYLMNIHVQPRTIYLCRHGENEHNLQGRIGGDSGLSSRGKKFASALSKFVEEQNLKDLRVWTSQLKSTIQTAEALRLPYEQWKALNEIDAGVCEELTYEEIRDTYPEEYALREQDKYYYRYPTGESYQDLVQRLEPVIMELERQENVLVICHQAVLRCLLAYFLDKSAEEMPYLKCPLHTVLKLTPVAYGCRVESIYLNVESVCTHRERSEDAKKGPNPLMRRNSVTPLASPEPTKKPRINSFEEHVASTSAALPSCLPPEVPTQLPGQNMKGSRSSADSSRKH
pIC50: −log10 of the molar value.
endpoint.label: pIC50

structure_notation=COc1cccc([C@H](C)Nc2cc(-c3ccc4ncsc4c3)nc(C)n2)c1 endpoint_label=pIC50 result="> 6.30"

====

test: Oral bioavailability in Beagle dog by LC-MS/MS analysis; format: ADME, organism-based, Canis lupus familiaris; conditions: in vivo
endpoint.label: bioavailability (%)

structure_notation=Nc1ccc(C(=O)c2cc3c(ccc4ccccc43)[nH]2)cc1 result_units=% quantitative_result=95

====

test: Cytotoxicity against human Epithelial cell assessed as cell growth inhibition; format: toxicity, cell-based; conditions: epithelial cells
pIC50: −log10 of the molar value.
endpoint.label: pIC50

structure_notation=O=C(/C=C/c1cccnc1)c1ccncc1 endpoint_label=pIC50 quantitative_result=5.85

====

assay: Half life in BALB/c mouse at 5 mg/kg, iv by LC-MS/MS analysis; format: ADME, organism-based; conditions: in vivo
endpoint.label: half-life (min)

molecule="O=C(/C=C/c1ccc2ccc(C(F)(F)F)cc2n1)c1ccncc1 [PFK-158]" quantitative_result=630

====

assay: AUC in BALB/c mouse at 5 mg/kg, iv by LC-MS/MS analysis; format: ADME, organism-based; parameters: dose 5 mg/kg, route iv; details: in vivo
endpoint.label: AUC (ng·h/mL)

structure_notation=O=C(/C=C/c1ccc2ccc(C(F)(F)F)cc2n1)c1ccncc1 quantitative_result=3240

====

assay: AUC in BALBc mouse at 10 mg/kg, iv by LC-MS/MS analysis; format: ADME, organism-based; design: dose 10 mg/kg, route iv; settings: BALB/c, in vivo
endpoint.label: AUC (ng·h/mL)

structure_notation=O=C(c1ccccc1)c1cc2c(ccc3ccccc32)[nH]1 endpoint_label=AUC quantitative_result=2630

====

target: 6-phosphofructo-2-kinase/fructose-2,6-bisphosphatase 3 (Homo sapiens, UniProt Q16875); format: cell-based, PANC-1
endpoint.label: IC50 (nM)

structure_notation=Cc1c(S(=O)(=O)Nc2cccc(C(=O)O)c2)sc2ccc(C(C)C)cc12 endpoint_label=IC50 quantitative_result=2300
structure_notation=O=C(OCCO)c1ccc(NS(=O)(=O)c2cccc(-c3cc(F)ccc3O)c2)cc1O endpoint_label=IC50 quantitative_result=90

====

assay: AUC in Sprague-Dawley rat at 10 mg/kg, iv by LC-MS/MS analysis; format: ADME, organism-based; parameters: dose 10 mg/kg, route iv; settings: in vivo
endpoint.label: AUC (ng·h/mL)

structure_notation=Cl.O=C(c1ccncc1)c1cc2c(ccc3ccccc32)[nH]1 result_units=ng·h/mL quantitative_result=1290

====

molecular target: 6-phosphofructo-2-kinase/fructose-2,6-bisphosphatase 3 (Homo sapiens); type: cell-based, NUGC-3
endpoint.label: IC50 (nM)

structure_notation=O=C(OCCO)c1ccc(NS(=O)(=O)c2cccc(-c3cc(F)ccc3O)c2)cc1O result_units=nM quantitative_result=90

====

IC50 values, listed per item
target: 6-phosphofructo-2-kinase/fructose-2,6-bisphosphatase 3 (Homo sapiens, UniProt Q16875); assay: Inhibition of PFKFB3 (unknown origin) by ADP-Glo luminescent assay
endpoint.label: IC50 (nM)

structure_notation=O=C(O)c1ccc(NS(=O)(=O)c2cc(Cl)sc2Cl)cc1O quantitative_result=290
structure_notation=O=C(O)c1ccc(NS(=O)(=O)c2cccc(-c3ccc4ncccc4c3)c2)cc1O quantitative_result=280
structure_notation=O=C(O)c1ccc(NS(=O)(=O)c2cc(-c3ccc4c(c3)OCO4)c(Cl)s2)cc1O quantitative_result=200
structure_notation=CC(C)OC(=O)c1cccc(-c2cc(S(=O)(=O)Nc3ccc(C(=O)O)c(O)c3)sc2Cl)c1 quantitative_result=150

From: ChEMBL document CHEMBL5230092
